Here the recorded Stability Long-Term RE is given for each entry.
# TEST PROTOCOL: Stability of 9 compounds in mouse plasma under storage conditions
# Format: in vitro ADME
# ASSAY CONDITIONS: −20 °C for 20 days, high QC (20,000 or 10,000 ng/mL), n = 6

{"COMPOUND": "COc1c(OC2OC(C(=O)O)C(O)C(O)C2O)cc2oc(-c3ccccc3)cc(=O)c2c1O [Oroxylin A 7-O-beta-D-glucuronide]", "DISPLAY UNIT": "%", "Stability Long-Term RE": 0.55}
{"COMPOUND": "O=C(O)[C@H]1O[C@@H](Oc2cc3oc(-c4ccccc4)cc(=O)c3c(O)c2O)[C@H](O)[C@@H](O)[C@@H]1O", "DISPLAY UNIT": "%", "Stability Long-Term RE": 5.87}
{"COMPOUND": "O=c1cc(-c2ccccc2)oc2cc(O)cc(O)c12", "DISPLAY UNIT": "%", "Stability Long-Term RE": "−3.86"}
{"COMPOUND": "COc1c(O)cc(O)c2c(=O)cc(-c3ccccc3)oc12", "DISPLAY UNIT": "%", "Stability Long-Term RE": 8.46}
{"COMPOUND": "O=C(O)[C@H]1O[C@@H](Oc2cc(O)c3c(=O)cc(-c4ccc(O)cc4)oc3c2)[C@H](O)[C@@H](O)[C@@H]1O [Apigenin-7-glucuronide]", "DISPLAY UNIT": "%", "Stability Long-Term RE": 9.80}
{"COMPOUND": "O=c1cc(-c2ccccc2)oc2c(O)c(O)cc(O)c12", "DISPLAY UNIT": "%", "Stability Long-Term RE": 0.11}
{"COMPOUND": "COc1c(O[C@@H]2O[C@H](C(=O)O)[C@@H](O)[C@H](O)[C@H]2O)cc(O)c2c(=O)cc(-c3ccccc3)oc12 [Wogonoside]", "DISPLAY UNIT": "%", "Stability Long-Term RE": 3.40}
{"COMPOUND": "COc1c(O)cc2oc(-c3ccccc3)cc(=O)c2c1O", "DISPLAY UNIT": "%", "Stability Long-Term RE": "−7.03"}
